Data provenance is the supplement of paper PMC10567573.

Recorded measurements of protein stability index, one per entry
B1: FAM50A (parent)
chain: KALEILRKDFSELRSAGVEQLMYI

Variants of: B1
Assay: protein stability index of a GFP-peptide fusion (GPS, HEK-293T) (PSI 1-6); higher = more stable;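 note: lentivirally expressed fusions sorted by FACS into six bins by GFP to DsRed ratio, PSI derived from sequencing read proportions per bin multiplied by bin number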
Settings: c terminus: a fixed tail appended
Hey, just send me the number, nothing else.

Here is how some variants turned out for protein stability index.
mutation_spec=L6Q quantity_measured="protein stability index" numeric_readout=2.51
mutation_spec=D9S quantity_measured="protein stability index" numeric_readout=3.85
mutation_spec=Y23D quantity_measured="protein stability index" numeric_readout=1.45
mutation_spec=L3R quantity_measured="protein stability index" numeric_readout=2.52
mutation_spec=R14S quantity_measured="protein stability index" numeric_readout=2.28

Identify protein stability index associated with the variant "E19F"
2.9
